- study_target: T1, ZNF524 ZF1-4 N211G (human, UniProt Q96C55 110-223, N211G)
- T1 sequence: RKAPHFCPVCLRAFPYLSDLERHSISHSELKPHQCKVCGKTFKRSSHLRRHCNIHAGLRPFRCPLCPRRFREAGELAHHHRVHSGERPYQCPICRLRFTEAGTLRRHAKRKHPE
- procedure_summary: ITC; ITC: 20 mM Tris-HCl pH 7.5, 150 mM NaCl, 20 C; pull-down: 50 mM Tris-HCl pH 7.5, 150 mM NaCl, 0.5% IGEPAL, 5 mM MgCl2, 1 mM DTT, salmon sperm DNA, 4 C
- condition_set: protein: recombinant; tags: none (GST removed by TEV); blunt
pKd: −log10 of the molar value.

binder | pKd
TTAGGG 12-bp duplex (dsDNA) DNA 1: GGTTAGGGTTAG DNA 2: CTAACCCTAACC | 6.77
